Recorded values, source ChEMBL document CHEMBL4513216.

System: Plasmodium berghei
Assay: Screen against P. berghei liver stage (PbLuc), transformed with Luciferase, at 10uM
Assay type: functional, HepG2
Details: tested at 10 uM
About 8,600 (12%) of roughly 69,000 compounds showed an effect of 50% or more. Many of the other results were omitted from the sample, so strong results are more common in it than they were.
I'd appreciate it if you marked entries TRUE when INHIBITION is lower than 10% and FALSE when it is not.

Answered examples (5):
O=C(c1cncnc1)N1C[C@@H]2CC[C@H](Oc3cccc(F)c3)[C@@H]2C1 :: TRUE
CC(C)c1cc(C(=O)N2CCC3(CCc4ccccc4C(=O)N3)C2)no1 (stereo unspecified) :: TRUE
Cc1noc(C2(C)CCCN(C(=O)C(C)C)C2)n1 (stereo unspecified) :: FALSE
CCOc1nnc(CN(CC)CC(=O)NC(C)C)s1 :: FALSE
COCCN1CCC(CNC(=O)C2(c3cccc(C)c3)CC2)C1 (stereo unspecified) :: FALSE

Could you now look at the following molecule, please?
I'd appreciate it if you could check whether COc1cccc(-c2cc(C3=NC(=CN4CCN(C)CC4)NO3)[nH]n2)c1 has INHIBITION smaller than 10%.
FALSE
